Target: HLA-A*68:01
Assay: IEDB peptide-MHC binding, purified MHC/competitive/radioactivity; filed as Kd, often an IC50 or EC50 that approximates it; bounds were set here for any values at or beyond the usual limits of such assays
Settings: source organism: Dengue virus 1 Singapore/S275/1990
RESULT_TYPE: Kd
Number first, unit second.

Q: Form field - read-out: Kd; system: HLA-A*68:01; submitted item: LAMGIMILK
Ans: 30.6 nM

====

Molecular target: HLA-A*24:02
Experiment: IEDB peptide-MHC binding, purified MHC/competitive/radioactivity; filed as Kd, often an IC50 or EC50 that approximates it; bounds were set here for any values at or beyond the usual limits of such assays
Conditions: source organism: Mammarenavirus whitewaterense
RESULT_TYPE: Kd (nM)
Answer in nM, number only, no unit symbol.

Q: Any idea what its Kd is? The sequence is FYVSSIFLHL
Ans: 114

====

Molecular target: HLA-B*44:02
Assay: IEDB peptide-MHC binding, purified MHC/direct/fluorescence; filed as Kd, often an IC50 or EC50 that approximates it; bounds were set here for any values at or beyond the usual limits of such assays
Settings: source organism: dengue virus type 1
RESULT_TYPE: Kd

Q: Which measured Kd belongs to SEHTGREIV , tested on HLA-B*44:02?
Ans: ≥ 20 µM

====

Molecular target: HLA-A*02:01
Assay: IEDB peptide-MHC binding, purified MHC/competitive/fluorescence; filed as Kd, often an IC50 or EC50 that approximates it; bounds were set here for any values at or beyond the usual limits of such assays
Details: source organism: Araucaria virus
RESULT_TYPE: Kd

Q: # lookup: Kd of AQKLATKPV
Ans: ≥ 20 µM

====

Target: HLA-A*24:03
Test: IEDB peptide-MHC binding, purified MHC/competitive/fluorescence; filed as Kd, often an IC50 or EC50 that approximates it; bounds were set here for any values at or beyond the usual limits of such assays
Details: source organism: Vibrio cholerae 2740-80
RESULT_TYPE: Kd

Q: For YEPEMQAQV , what is its reported Kd?
Ans: ≥ 20 µM

====

Target: HLA-A*69:01
Assay: IEDB peptide-MHC binding, purified MHC/direct/fluorescence; filed as Kd, often an IC50 or EC50 that approximates it; bounds were set here for any values at or beyond the usual limits of such assays
Conditions: source organism: Vibrio vulnificus YJ016
RESULT_TYPE: Kd

{"SEQUENCE_TEXT": "WHQARFEEL", "RESULT_TYPE": "Kd", "MEASURED_RESULT": "≥ 20 µM"}

Proceeding to the next sequence to report its Kd.
Q: Fill in the blank: the reported Kd of GWPDNYCEW is ____.
Ans: ≥ 20 µM

====

Target: HLA-A*02:11
Assay: IEDB peptide-MHC binding, purified MHC/competitive/fluorescence; filed as Kd, often an IC50 or EC50 that approximates it; bounds were set here for any values at or beyond the usual limits of such assays
Settings: source organism: Burkholderia vietnamiensis G4
RESULT_TYPE: Kd

Q: Give recorded Kd with HLA-A*02:11 for the following sequence: GVNDTEAHA
Ans: ≥ 20 µM

====

Biological target: HLA-C*04:01
Assay: IEDB peptide-MHC binding, purified MHC/direct/fluorescence; filed as Kd, often an IC50 or EC50 that approximates it; bounds were set here for any values at or beyond the usual limits of such assays
Conditions: source organism: Vaccinia virus Copenhagen
RESULT_TYPE: Kd

Q: Sample IQNDLITEF — what was its Kd?
Ans: ≥ 20 µM
